experiment: human bioavailability comparison study, Tablet Formulation 9 vs co-administered single entity products; assay type: in vivo; conditions: human, plasma, oral, Treatment C: two units Tablet Formulation 9b (450 mg Compound I, 100 mg Compound II, 50 mg Compound III); human plasma, fasted; read-out: AUC0-last GM
readout name: AUC(0-t)

>  <molecule>
C=C[C@@H]1C[C@]1(NC(=O)[C@@H]1C[C@@H]2CN1C(=O)[C@H](C(C)(C)C)NC(=O)O[C@@H]1C[C@H]1CCCCCc1nc3ccc(OC)cc3nc1O2)C(=O)NS(=O)(=O)C1CC1 [Compound III, hydrate]

>  <AUC(0-t)>
0.522 µM·h

$$$$

Query block: What value of measured AUC(0-t) is listed for COC(=O)N[C@H](C(=O)N1CCC[C@H]1c1nc(-c2ccc3c(c2)O[C@@H](c2ccccc2)n2c-3cc3cc(-c4c[nH]c([C@@H]5CCCN5C(=O)[C@@H](NC(=O)OC)C(C)C)n4)ccc32)c[nH]1)C(C)C [Compound II] ?
Result block: 2.35 µM·h
